target: alkaline phosphatase (Homo sapiens); test: Conversion of the mutual MRA-β-agonist prodrug to salmeterol and MRA after exposure to alkaline phosphatase in vitro (LCMS); assay type: in vitro ADME; conditions: human, pH 7.4, ALP Enzyme Conc. 0.443 mg/mL; 37 degrees; first order kinetics assumed; read-out: Half Life t1/2
Sequence (P05187 23-506 limits assumed): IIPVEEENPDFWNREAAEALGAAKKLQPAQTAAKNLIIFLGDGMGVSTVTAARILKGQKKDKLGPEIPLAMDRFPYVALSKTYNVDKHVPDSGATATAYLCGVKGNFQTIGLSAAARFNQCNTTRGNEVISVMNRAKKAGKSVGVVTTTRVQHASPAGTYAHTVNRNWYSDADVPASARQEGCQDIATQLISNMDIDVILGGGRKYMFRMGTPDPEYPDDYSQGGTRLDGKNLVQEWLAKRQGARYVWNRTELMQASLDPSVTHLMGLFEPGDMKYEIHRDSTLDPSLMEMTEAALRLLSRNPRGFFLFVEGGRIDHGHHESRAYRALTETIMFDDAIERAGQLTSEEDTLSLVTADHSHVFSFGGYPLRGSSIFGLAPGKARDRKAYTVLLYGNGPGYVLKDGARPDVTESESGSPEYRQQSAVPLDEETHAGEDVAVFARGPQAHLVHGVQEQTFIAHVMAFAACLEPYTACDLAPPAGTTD
measurement-label: half-life at 86.6 μM (min)
Give bare numbers, in min.

Query :: Note down half-life at 86.6 μM recorded for C[N+]1(Cc2cc(C(O)CNCCCCCCOCCCCc3ccccc3)ccc2OP(=O)(O)O)CCC(CNC(=O)[C@H]2CCCN2C(=O)[C@@H]2C[C@@H](O)CN2C(=O)CC(c2ccc(F)cc2)(c2ccc(F)cc2)c2ccc(F)cc2)CC1 (stereo partly shown) [Example 29]
Result :: 43.2
